B1: 2M8U (parent)
chain: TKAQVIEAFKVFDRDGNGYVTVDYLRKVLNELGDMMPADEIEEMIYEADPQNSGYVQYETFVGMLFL

Variants of: B1
assay_comment: folding stability dG (cDNA display proteolysis); higher = more stable
protocol_conditions: PBS, room temperature
Recorded folding stability dG by entry
Provide only the numeric value, understood in kcal/mol.

Below: 3 variants and their reported folding stability dG.
{"variant": "K27T", "folding stability dG / kcal/mol": 3.26}
{"variant": "M36V", "folding stability dG / kcal/mol": 3.81}
{"variant": "A8R", "folding stability dG / kcal/mol": 3.6}

Lookup: I'd like to know its folding stability dG. The variant in question is "L32F"
Found: 3.66

Lookup: I'd like to know its folding stability dG. The variant in question is "T1P"
Found: 2.6

Lookup: I'd like to know its folding stability dG. The variant in question is "T60F"
Found: 3.32

Lookup: I'd like to know its folding stability dG. The variant in question is "T1K"
Found: 3.48
